Cited source: ChEMBL document CHEMBL3243954

Provide the reported ED50 of each item.
Tested on: Mus musculus
Assay: Muscle relaxant activity in iv dosed mouse after 60 mins by rotarod test
Type: ADME, organism-based
Conditions: in vivo, 1 h
One number for each entry, in mg/kg.

Examples from the recorded data:
INSERT INTO assay_data (compound, value_measured) VALUES
  ('CCC(CC)C(=O)OC1N=C(c2ccccc2)c2cc(Cl)ccc2NC1=O (centres undefined)', 3.42),
  ('CC(Cc1ccccc1)C(=O)OC1N=C(c2ccccc2)c2cc(Cl)ccc2NC1=O (racemic)', 4.01);

// for each compound below, give its ED50
1. CCC(=O)OC1N=C(c2ccccc2)c2cc(Cl)ccc2NC1=O (centres undefined)
2. CCCC(=O)OC1N=C(c2ccccc2)c2cc(Cl)ccc2NC1=O (centres undefined)
3. CC(=O)OC1N=C(c2ccccc2)c2cc(Cl)ccc2NC1=O (centres undefined)
4. CC(Cc1ccccc1)C(=O)OC1N=C(c2ccccc2)c2cc(Cl)ccc2NC1=O (single isomer, unassigned; (-))
5. O=C(CCc1ccccc1)OC1N=C(c2ccccc2)c2cc(Cl)ccc2NC1=O (centres undefined)
6. CC(Cc1ccccc1)C(=O)OC1N=C(c2ccccc2)c2cc(Cl)ccc2NC1=O (stereo in doubt; 11)
7. CC(C)C(=O)OC1N=C(c2ccccc2)c2cc(Cl)ccc2NC1=O (centres undefined)

Completion:
[4.4, 3.28, 1.2, 2.2, 3.56, 3.83, 2.67]

* * *

Test: Retardation factor, Rm of the compound by thin-layer chromatography
Type: physicochemical
One threshold, 0.1, splits the recorded Rm values: lower ones are true (1), equal or higher ones are false (0).

A selection of reference data follows.
INSERT INTO assay_data (compound, assigned_label) VALUES
  ('CCCC(=O)OC1N=C(c2ccccc2)c2cc(Cl)ccc2N[14C]1=O (centres undefined)', 'false (0)'),
  ('CC(Cc1ccccc1)C(=O)OC1N=C(c2ccccc2)c2cc(Cl)ccc2N[14C]1=O (racemic)', 'false (0)'),
  ('CCC(CC)C(=O)OC1N=C(c2ccccc2)c2cc(Cl)ccc2N[14C]1=O (centres undefined)', 'false (0)'),
  ('CCC(=O)OC1N=C(c2ccccc2)c2cc(Cl)ccc2N[14C]1=O (centres undefined)', 'true (1)'),
  ('CC(C)C(=O)OC1N=C(c2ccccc2)c2cc(Cl)ccc2N[14C]1=O (centres undefined)', 'false (0)'),
  ('O=C(CCc1ccccc1)OC1N=C(c2ccccc2)c2cc(Cl)ccc2N[14C]1=O (centres undefined)', 'false (0)');

Prompt: # TODO verify Rm < 0.1 strictly for this compound: COC(=O)CCC(=O)OC1N=C(c2ccccc2)c2cc(Cl)ccc2N[14C]1=O (centres undefined)
Completion: true (1)

Prompt: # TODO verify Rm < 0.1 strictly for this compound: O=C(CCCc1ccccc1)OC1N=C(c2ccccc2)c2cc(Cl)ccc2N[14C]1=O (centres undefined)
Completion: false (0)

Prompt: # TODO verify Rm < 0.1 strictly for this compound: CC(=O)OC1N=C(c2ccccc2)c2cc(Cl)ccc2N[14C]1=O (centres undefined)
Completion: true (1)

* * *

Provide the reported Drug uptake of each item.
Test system: Brain
Assay: Drug uptake albino mouse brain at 5 mg equivalent of oxazepam/kg, iv after 10 mins measured per gm of tissue by thin-layer chromatography
Assay type: ADME, organism-based
Conditions: in vivo
One number for each entry, in nmol.

Examples from the recorded data:
INSERT INTO results (compound, target_under_test, value_measured) VALUES
  ('CC(Cc1ccccc1)C(=O)OC1N=C(c2ccccc2)c2cc(Cl)ccc2N[14C]1=O (stereo in doubt; [14C]-11)', 'Brain', 5.6),
  ('CC(Cc1ccccc1)C(=O)OC1N=C(c2ccccc2)c2cc(Cl)ccc2N[14C]1=O (single isomer, unassigned; (-))', 'Brain', 4.6),
  ('CC(C)C(=O)OC1N=C(c2ccccc2)c2cc(Cl)ccc2N[14C]1=O (stereo unspecified)', 'Brain', 8.9);

// for each compound below, give its Drug uptake
1. O=C(CCCc1ccccc1)OC1N=C(c2ccccc2)c2cc(Cl)ccc2N[14C]1=O (stereo unspecified)
2. CC(Cc1ccccc1)C(=O)OC1N=C(c2ccccc2)c2cc(Cl)ccc2N[14C]1=O (racemic)
3. O=C(CCc1ccccc1)OC1N=C(c2ccccc2)c2cc(Cl)ccc2N[14C]1=O (stereo unspecified)

Completion:
1. 2.9
2. 4.7
3. 2.2

* * *

Provide the reported Drug uptake of each item.
Tested on: Brain
Assay: Drug uptake albino mouse brain at 5 mg equivalent of oxazepam/kg, iv after 120 mins measured per gm of tissue by thin-layer chromatography
Type: ADME, organism-based
Details: in vivo, 2 h
One number for each entry, in nmol.

INSERT INTO assay_data (compound, result_type, unit_annotation, value_measured) VALUES
  ('CC(Cc1ccccc1)C(=O)OC1N=C(c2ccccc2)c2cc(Cl)ccc2N[14C]1=O (racemic)', 'Drug uptake', 'nmol', 14.2);

// for each compound below, give its Drug uptake
1. CC(Cc1ccccc1)C(=O)OC1N=C(c2ccccc2)c2cc(Cl)ccc2N[14C]1=O (single isomer, unassigned; (-))
2. CC(C)C(=O)OC1N=C(c2ccccc2)c2cc(Cl)ccc2N[14C]1=O (stereo unspecified)
3. O=C(CCc1ccccc1)OC1N=C(c2ccccc2)c2cc(Cl)ccc2N[14C]1=O (stereo unspecified)
4. O=C(CCCc1ccccc1)OC1N=C(c2ccccc2)c2cc(Cl)ccc2N[14C]1=O (stereo unspecified)
5. CC(Cc1ccccc1)C(=O)OC1N=C(c2ccccc2)c2cc(Cl)ccc2N[14C]1=O (stereo in doubt; [14C]-11)

Completion:
13.7
5.9
12.2
15.1
11.7

* * *

System: Brain
Test: Drug uptake albino mouse brain at 5 mg equivalent of oxazepam/kg, iv after 3 mins measured per gm of tissue by thin-layer chromatography
Type: ADME, organism-based
Settings: in vivo, 0.05 h
Result Type: Drug uptake (nmol)
Answers are plain numbers, in nmol.

Examples from the recorded data:
INSERT INTO results (compound, value_measured) VALUES
  ('CC(Cc1ccccc1)C(=O)OC1N=C(c2ccccc2)c2cc(Cl)ccc2N[14C]1=O (stereo in doubt; [14C]-11)', 2.1),
  ('CC(Cc1ccccc1)C(=O)OC1N=C(c2ccccc2)c2cc(Cl)ccc2N[14C]1=O (single isomer, unassigned; (-))', 0.8),
  ('O=C(CCc1ccccc1)OC1N=C(c2ccccc2)c2cc(Cl)ccc2N[14C]1=O (stereo not given)', 0.8),
  ('CC(Cc1ccccc1)C(=O)OC1N=C(c2ccccc2)c2cc(Cl)ccc2N[14C]1=O (racemic)', 1.3);

Below: the item to evaluate.
Prompt: Quick one: Drug uptake for O=C(CCCc1ccccc1)OC1N=C(c2ccccc2)c2cc(Cl)ccc2N[14C]1=O (stereo not given) ?
Completion: 0.9

* * *

Provide the reported Km of each item.
Assay: Drug metabolism in mouse liver microsomes assessed as rate of esterase-mediated compound hydrolysis by pH stat based titrimetric analysis
Type: ADME
Conditions: microsomes
Give bare numbers, in µM.

Examples from the recorded data:
INSERT INTO assay_data (compound, result_type, value_measured) VALUES
  ('CC(Cc1ccccc1)C(=O)OC1N=C(c2ccccc2)c2cc(Cl)ccc2NC1=O (racemic)', 'Km', 8.3),
  ('CC(Cc1ccccc1)C(=O)OC1N=C(c2ccccc2)c2cc(Cl)ccc2NC1=O (stereo in doubt; 11)', 'Km', 25);

Below: the item to evaluate.
Prompt: Quick one: Km for CC(Cc1ccccc1)C(=O)OC1N=C(c2ccccc2)c2cc(Cl)ccc2NC1=O (single isomer, unassigned; (-)) ?
Completion: 8.7

* * *

Provide the reported ED50 of each item.
Test system: Mus musculus
Test: Antimetrazol activity in iv dosed mouse assessed as inhibition of metrazol-induced tonic-extensor seizures administered 30 mins prior to metrazol challenge
Format: functional
Details: Mus musculus, iv; read-out: ED50
One number for each entry, in mg/kg.

INSERT INTO assay_data (compound, target_under_test, unit_annotation, value_measured) VALUES
  ('CCC(CC)C(=O)OC1N=C(c2ccccc2)c2cc(Cl)ccc2NC1=O (configuration not stated)', 'Mus musculus', 'mg/kg', 0.28),
  ('CC(C)C(=O)OC1N=C(c2ccccc2)c2cc(Cl)ccc2NC1=O (configuration not stated)', 'Mus musculus', 'mg/kg', 0.51),
  ('CCCC(=O)OC1N=C(c2ccccc2)c2cc(Cl)ccc2NC1=O (configuration not stated)', 'Mus musculus', 'mg/kg', 0.29),
  ('CC(=O)OC1N=C(c2ccccc2)c2cc(Cl)ccc2NC1=O (configuration not stated)', 'Mus musculus', 'mg/kg', 0.38),
  ('O=C(CCc1ccccc1)OC1N=C(c2ccccc2)c2cc(Cl)ccc2NC1=O (configuration not stated)', 'Mus musculus', 'mg/kg', 0.44),
  ('O=C1Nc2ccc(Cl)cc2C(c2ccccc2)=NC1O (configuration not stated)', 'Mus musculus', 'mg/kg', 0.18);

Below: the item to evaluate.
Prompt: Quick one: ED50 for CCC(=O)OC1N=C(c2ccccc2)c2cc(Cl)ccc2NC1=O (configuration not stated) ?
Completion: 0.13
